# ASSAY_REMARKS: Partition coefficient (logP)
# Type: physicochemical
# CONDITION_LABEL: octanol/water
Recorded logP determines the label; the label ranges are bin 0 (below 4), bin 1 (4 to below 5), bin 2 (5 or more)

>  <SMI>
COc1cc(CCC2c3cccc(O)c3C(=O)c3c(O)cccc32)cc(OC)c1OC

>  <ASSIGNED_LABEL>
bin 1

$$$$
>  <SMI>
O=C1c2c(O)cccc2C(CCc2cc(O)c(O)c(O)c2)c2cccc(O)c21

>  <ASSIGNED_LABEL>
bin 0

$$$$
>  <SMI>
O=C1c2c(O)cccc2C(CCCCc2ccccc2)c2cccc(O)c21

>  <ASSIGNED_LABEL>
bin 2

$$$$
>  <SMI>
COc1ccc(CC(=O)C2c3cccc(O)c3C(=O)c3c(O)cccc32)cc1

>  <ASSIGNED_LABEL>
bin 1

$$$$
>  <SMI>
COc1ccc(CCC2c3cccc(O)c3C(=O)c3c(O)cccc32)cc1OC

>  <ASSIGNED_LABEL>
bin 1

$$$$
>  <SMI>
COc1ccc(CC2c3cccc(O)c3C(=O)c3c(O)cccc32)cc1

>  <ASSIGNED_LABEL>
bin 1

$$$$
>  <SMI>
O=C1c2c(O)cccc2C(Cc2ccncc2)c2cccc(O)c21

>  <ASSIGNED_LABEL>
bin 0

$$$$
>  <SMI>
O=C1c2c(O)cccc2C(CCCc2ccccc2)c2cccc(O)c21

>  <ASSIGNED_LABEL>
bin 2

$$$$
>  <SMI>
O=C1c2c(O)cccc2C(Cc2ccc([N+](=O)[O-])cc2)c2cccc(O)c21

>  <ASSIGNED_LABEL>
bin 1

$$$$
>  <SMI>
O=C1c2c(O)cccc2C(CCc2ccccc2)c2cccc(O)c21

>  <ASSIGNED_LABEL>
bin 2

$$$$
>  <SMI>
O=C1c2c(O)cccc2C(CCc2ccc(O)c(O)c2)c2cccc(O)c21

>  <ASSIGNED_LABEL>
bin 0

$$$$
